Data provenance: paper PMC5540273

System: RIPK1
Conditions: concentration: 1 μM, replicates: in singlicate; n = 1;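 further: KINOMEscan kinase panel screen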
Response field label takes Y when %Inh is strictly below 20% and N in all other cases.

%Inh strictly < 20% for this molecule? "CCc1ccc(-c2ccc3c(c2)-c2n[nH]cc2S(=O)(=O)N3C)cc1"
Y

Would you kindly verify if %Inh of "Cc1ccccc1-c1cc(-c2c[nH]nc2-c2ccccn2)ccn1" is strictly less than 20%?
Y

Is 20% strictly greater than the molecule's reported %Inh? molecule: "CNC(=O)c1ccc(C)c(-n2c(C)cc(OCc3ccc(F)cc3F)c(Br)c2=O)c1"
Y

# strict comparison: is reported %Inh < 20%? input = "O=C(Nc1n[nH]c2nc(-c3cccs3)c(Br)cc12)C1CC1"
Y

In the record for "CNCc1ccc2nc(NC(=O)c3ccc(C(C)(C)C)cc3)cn2c1" , is %Inh less than 20%?
Y

I'd appreciate it if you could check whether "O=C(Nc1n[nH]c2cc(-c3ccsc3)ccc12)C1CC1" has %Inh smaller than 20%.
N

Item "Cc1ccc(NC(=O)Nc2ccccc2F)cc1-c1ccc(C(=O)Nc2ccncc2)cc1" : %Inh beneath 20%, strictly?
Y

Identify whether the molecule "Cc1ccc(NC(=O)Nc2ccccc2)cc1-c1ccc(C(=O)Nc2ccncc2)cc1" records %Inh below 20%.
Y

Consider the molecule "Cl.Cl.Cl.N#Cc1ccc(CCNc2nccc(-c3cccc(CN4CCNCC4)c3)n2)cc1" . Is its %Inh strictly less than 20%?
N

Take the molecule "Cc1c(Cn2c(C)c(C)n3c(=O)cc(N4CCOCC4)nc23)cccc1C(F)(F)F" and say whether its %Inh is less than 20%.
Y

is_below(%Inh, 20%) for "COc1cccc(C2=C(Nc3cc(Cl)c(O)c(Cl)c3)C(=O)NC2=O)c1" ?
Y

---

Test system: PIM1
Settings: concentration: 1 μM, replicates: in singlicate; n = 1
Kindly supply the reported %Inh values for the records listed here.
Field: numeric (%). Do not append units.

Tell me reported %Inh for "Cn1cnc2c(N)ncnc21" , tested with PIM1.
5

Return %Inh measured with PIM1 given this compound: "CC(=O)c1c(C)c2cnc(Nc3ccc(N4CCNCC4)cn3)nc2n(C2CCCC2)c1=O"
0

API: value(readout= %Inh, system= PIM1, query= "Cc1ccccc1Cn1ccn2c(=O)cc(N3CCOCC3)nc12" )
17

Identify the measured %Inh of "CNCc1ccc2nc(NC(=O)c3ccc(C(C)(C)C)cc3)cn2c1" for PIM1.
0

Report %Inh for "Fc1ccc(-c2nc[nH]c2-c2ccncc2)cc1" tested on PIM1.
19

Any idea what %Inh came out for "COc1cccc(NC(=O)Nc2ccc(C)c(-c3ccc(C(=O)Nc4ccncc4)cc3)c2)c1" on PIM1?
15

Field: %Inh (PIM1). Entry: "Cc1ccc(NC(=O)c2ccc(Cl)cc2)cc1-c1ccc(C(=O)Nc2ccncc2)cc1"
0

Identify the measured %Inh of "O=C(Nc1n[nH]c2nc(-c3cccs3)c(Br)cc12)C1CCCC1" for PIM1.
0

Give %Inh (PIM1) of the following compound: "O=c1cc(N2CCOCC2)nc2n(Cc3cccc(Cl)c3Cl)c3ccccc3n12"
0

So what %Inh did COc1cccc(CNC(=O)NC2CCN(c3ccnc(Nc4ccc(F)cc4)n3)C2)c1 (stereo not drawn) get with PIM1?
15

API: value(readout=%Inh, system=PIM1) for record "CSc1ccc(-c2nc3n(c2-c2ccncc2)CCC3)cc1"
0

Could you share what %Inh was measured for "CCn1c(-c2c(N)noc2C)nc2cnccc21" , tested on PIM1?
0
